- test_description: Pharmacokinetics in Sprague Dawley rats (plasma and brain concentrations, PK parameters)
- Format: in vivo
- measurement_context: Sprague-Dawley, rat, plasma, iv, 3 mg/kg, Sprague Dawley rat, iv 3 mg/kg, plasma, 0.25 h, Rat 1; read-out: Concentration Rat 1
measurement_label: concentration at 0.25 h (µg/mL)

O=C1CCC(N2C(=O)c3cccc(NCCOCCOCCNCc4ccc(-n5cc(NC(=O)c6coc(-c7ccnc(NCC8CC8)c7)n6)c(C(F)F)n5)cc4)c3C2=O)C(=O)N1 (stereo not shown) = 0.396

----------
- tested_on: IRAK4 (Homo sapiens)
- Sequence (Q9NWZ3 1-460): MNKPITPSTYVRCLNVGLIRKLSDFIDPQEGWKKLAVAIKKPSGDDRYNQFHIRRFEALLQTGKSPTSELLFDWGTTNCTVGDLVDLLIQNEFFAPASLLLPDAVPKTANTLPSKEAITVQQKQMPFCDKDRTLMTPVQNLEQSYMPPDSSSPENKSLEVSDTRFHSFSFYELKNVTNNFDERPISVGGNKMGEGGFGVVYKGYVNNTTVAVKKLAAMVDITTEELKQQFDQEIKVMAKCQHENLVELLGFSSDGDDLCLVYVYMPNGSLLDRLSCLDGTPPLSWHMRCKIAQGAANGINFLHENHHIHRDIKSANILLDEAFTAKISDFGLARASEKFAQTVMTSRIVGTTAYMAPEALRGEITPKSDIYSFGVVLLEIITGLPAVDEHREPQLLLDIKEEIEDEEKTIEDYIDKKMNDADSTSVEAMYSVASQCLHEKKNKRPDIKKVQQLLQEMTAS
- test_description: OCI-LY-10 degradation assay (western blot, % IRAK4 degraded after 4 hours)
- Format: cell-based
- Set-up: endogenous in cells; host or cells: OCI-LY10
- measurement_context: OCI-LY10 cells, 4 hours, 1 uM compound
measurement_label: OCI-LY10 % IRAK4 Degradation (1 uM)

O=C1CCC(N2C(=O)c3cccc(CCOCCN4CCC(n5cc(NC(=O)c6coc(-c7ccnc(NCC8CC8)c7)n6)c(C(F)F)n5)CC4)c3C2=O)C(=O)N1 (centres unmarked) = C (<20% degradation)
O=C1CCC(N2C(=O)c3cccc(CCCNCc4ccc(-n5cc(NC(=O)c6coc(-c7ccncc7)n6)c(C(F)F)n5)cc4)c3C2=O)C(=O)N1 (centres unmarked) = C (<20% degradation)
CN(CCCCCOCCCc1cccc2c1C(=O)N(C1CCC(=O)NC1=O)C2=O)Cc1ccc(-n2cc(NC(=O)c3coc(-c4ccnc(NCC5CC5)c4)n3)c(C(N)=O)n2)cc1 (centres unmarked) = A (>50% degradation)
CC[C@@H]1[C@H](F)C(=O)N[C@@H]1COc1ncc(C#Cc2ccc(OCCOCCOCCOCCNc3cccc4c3C(=O)N(C3CCC(=O)NC3=O)C4=O)cc2)c2cc(C(N)=O)c(OC)cc12 (some centres unmarked) = A (>50% degradation)
NC(=O)c1nn(-c2ccc(CNCCOCCCc3cccc4c3CN(C3CCC(=O)NC3=O)C4=O)cc2)cc1NC(=O)c1coc(-c2ccnc(NCC(F)(F)F)c2)n1 (centres unmarked) = B (>20-50% degradation)
O=C1CCC(N2C(=O)c3cccc(NCCOCCN4CCO[C@H](CNCc5ccc(-n6cc(NC(=O)c7coc(-c8ccnc(NCC9CC9)c8)n7)c(C(F)F)n6)cc5)C4)c3C2=O)C(=O)N1 (some centres unmarked) [I-330] = A (>50% degradation)
O=C1CCC(N2C(=O)c3cccc(NCCOCCOCCN4Cc5ccc(-n6cc(NC(=O)c7coc(-c8ccnc(NCC9CC9)c8)n7)c(C(F)(F)F)n6)cc5C4)c3C2=O)C(=O)N1 (centres unmarked) = C (<20% degradation)
O=C1CCC(N2C(=O)c3ccc(NC4CN(CCOCCOCCNCc5ccc(-n6cc(NC(=O)c7coc(-c8ccnc(NCC9CC9)c8)n7)c(C(F)F)n6)cc5)C4)cc3C2=O)C(=O)N1 (centres unmarked) = A (>50% degradation)
CN(CCCCCCCCCc1cccc2c1C(=O)N(C1CCC(=O)NC1=O)C2=O)Cc1ccc(-n2cc(NC(=O)c3coc(-c4ccnc(NCC5CC5)c4)n3)c(C(N)=O)n2)cc1 (centres unmarked) = B (>20-50% degradation)
O=C1CCC(N2C(=O)c3ccc(N4CCN(CCOCCOCCOCCNCc5ccc(-n6cc(NC(=O)c7coc(-c8ccnc(NCC9CC9)c8)n7)c(C(F)F)n6)cc5)CC4)cc3C2=O)C(=O)N1 (centres unmarked) = A (>50% degradation)
O=C1CCC(N2C(=O)c3cccc(NC4CCN(CCOCCNCc5ccc(-n6cc(NC(=O)c7coc(-c8ccnc(NCC9CC9)c8)n7)c(C(F)F)n6)cc5)CC4)c3C2=O)C(=O)N1 (centres unmarked) = B (>20-50% degradation)
